The measurements presented in this section are drawn from the RNAGym collection of RNA variant scans (doi:10.1101/gr.219683.116).

B1: mRNA-splicing (parent)
chain: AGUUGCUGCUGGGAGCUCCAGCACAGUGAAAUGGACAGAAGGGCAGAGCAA

variants of: B1; assay: exon inclusion enrichment index; higher = more inclusion; WT1 exon 5 minigene, HEK293
readout.kind: exon inclusion enrichment index
Form: value (number only, do not type unit).

Sample answers from the record:
| mutation.string | exon inclusion enrichment index |
| --- | --- |
| G5A U7C G8A U10C A35G C36G | 0.306 |
| G5A U7C G8A U10C A37G G38A | 2.19 |
| G5A G8U U10C | 1.78 |
| G5C C6U G8C C9U U10C C36A A37U | 0.939 |
| G5C C6G U7C U10C G42C | 4.75 |

Now for another entry.
Please report the recorded exon inclusion enrichment index for A35U C36A .
0.000875
